Target: Vasopressin V1a receptor (Homo sapiens)
Sequence (P37288 whole entry): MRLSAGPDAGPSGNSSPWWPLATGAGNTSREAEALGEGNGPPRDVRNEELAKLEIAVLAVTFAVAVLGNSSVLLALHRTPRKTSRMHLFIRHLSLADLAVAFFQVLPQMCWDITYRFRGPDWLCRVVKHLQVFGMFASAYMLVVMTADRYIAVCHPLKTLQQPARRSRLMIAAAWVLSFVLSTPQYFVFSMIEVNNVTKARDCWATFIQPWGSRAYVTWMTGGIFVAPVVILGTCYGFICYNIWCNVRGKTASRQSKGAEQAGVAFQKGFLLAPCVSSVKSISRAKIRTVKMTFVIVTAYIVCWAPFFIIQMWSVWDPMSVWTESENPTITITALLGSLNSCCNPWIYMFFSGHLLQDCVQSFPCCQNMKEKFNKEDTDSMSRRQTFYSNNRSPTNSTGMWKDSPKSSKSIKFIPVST
Assay: Displacement of [3H]AVP from human recombinant V1a receptor expressed in H recombinant CHO cells

# input_smiles, IC50
records = [
    ("C/C(=N\\OC(=O)Nc1ccccc1)c1cccc(-c2cccs2)c1", "> 10 µM"),
]

###

Molecular target: Fatty-acid amide hydrolase 1 (Mus musculus, UniProt O08914)
Sequence (O08914 whole entry): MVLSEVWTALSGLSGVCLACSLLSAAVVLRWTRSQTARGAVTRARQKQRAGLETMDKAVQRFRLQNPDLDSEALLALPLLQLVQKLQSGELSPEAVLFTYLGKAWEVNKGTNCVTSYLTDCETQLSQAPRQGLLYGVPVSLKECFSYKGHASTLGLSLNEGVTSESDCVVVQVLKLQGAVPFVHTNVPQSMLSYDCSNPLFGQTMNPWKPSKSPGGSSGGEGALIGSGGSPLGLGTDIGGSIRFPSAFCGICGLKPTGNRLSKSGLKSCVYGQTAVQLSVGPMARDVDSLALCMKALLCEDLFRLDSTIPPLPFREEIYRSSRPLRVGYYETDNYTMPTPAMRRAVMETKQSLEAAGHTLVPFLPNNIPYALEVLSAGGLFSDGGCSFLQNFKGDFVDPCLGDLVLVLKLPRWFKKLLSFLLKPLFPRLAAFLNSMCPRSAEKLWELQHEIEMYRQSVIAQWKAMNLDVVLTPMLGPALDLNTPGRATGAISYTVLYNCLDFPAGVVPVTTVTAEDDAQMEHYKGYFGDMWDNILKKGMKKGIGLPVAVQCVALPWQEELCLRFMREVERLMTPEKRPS
Assay: Inhibition of mouse brain FAAH assessed as conversion of [3H-ethanolamine]AEA to [3H]ethanolamine by scintillation counting
pIC50: −log10 of the molar value.
experimental_endpoint: pIC50

# input_smiles, experimental_endpoint, value_qualifier, readout_value
data = [
    ("C/C(=N\\OC(=O)Nc1ccccc1)c1cccc(-c2cccc(C(=O)NC(=O)Nc3ccccc3)c2)c1", "pIC50", "<", 4.60),
    ("C/C(=N\\OC(=O)Nc1ccccc1)c1cccc(-c2cccc(C(N)=O)c2)c1", "pIC50", "=", 7.08),
    ("C/C(=N\\OC(=O)Nc1ccccc1)c1cccc(-c2cccs2)c1", "pIC50", "=", 8.10),
    ("C/C(=N\\OC(=O)Nc1cccc2ccccc12)c1ccc(C2CCCCC2)cc1", "pIC50", "<", 6.00),
    ("C/C(=N\\OC(=O)Nc1ccccc1)c1ccc(-c2cccs2)cc1", "pIC50", "=", 6.70),
]

###

Target: Neuropeptide Y receptor type 1 (Homo sapiens)
Sequence (P25929 whole entry): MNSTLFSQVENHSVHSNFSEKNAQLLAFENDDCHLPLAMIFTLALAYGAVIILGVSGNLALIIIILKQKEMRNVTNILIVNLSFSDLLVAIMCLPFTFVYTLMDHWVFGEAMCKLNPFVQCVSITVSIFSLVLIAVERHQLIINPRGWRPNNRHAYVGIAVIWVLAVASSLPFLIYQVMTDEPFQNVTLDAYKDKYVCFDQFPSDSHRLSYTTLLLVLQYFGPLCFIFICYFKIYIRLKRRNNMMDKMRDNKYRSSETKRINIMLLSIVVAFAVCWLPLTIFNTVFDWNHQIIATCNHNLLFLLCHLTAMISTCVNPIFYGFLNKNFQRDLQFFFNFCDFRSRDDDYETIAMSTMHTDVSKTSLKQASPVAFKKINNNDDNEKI
Experiment: Displacement of [125I]peptide YY from human recombinant Y1 receptor expressed in […] cell
pIC50: −log10 of the molar value.

# input_smiles, pIC50
data = [
    ("C/C(=N\\OC(=O)Nc1ccccc1)c1cccc(-c2cccs2)c1", "< 5.00"),
]
